// data source = patent US20250154123A1

Target: hTRPM8 (Homo sapiens)
Construct: expressed in transfected cells; host or cells: CHO-KJ cells [sic]
Sequence (Q7Z2W7 whole entry): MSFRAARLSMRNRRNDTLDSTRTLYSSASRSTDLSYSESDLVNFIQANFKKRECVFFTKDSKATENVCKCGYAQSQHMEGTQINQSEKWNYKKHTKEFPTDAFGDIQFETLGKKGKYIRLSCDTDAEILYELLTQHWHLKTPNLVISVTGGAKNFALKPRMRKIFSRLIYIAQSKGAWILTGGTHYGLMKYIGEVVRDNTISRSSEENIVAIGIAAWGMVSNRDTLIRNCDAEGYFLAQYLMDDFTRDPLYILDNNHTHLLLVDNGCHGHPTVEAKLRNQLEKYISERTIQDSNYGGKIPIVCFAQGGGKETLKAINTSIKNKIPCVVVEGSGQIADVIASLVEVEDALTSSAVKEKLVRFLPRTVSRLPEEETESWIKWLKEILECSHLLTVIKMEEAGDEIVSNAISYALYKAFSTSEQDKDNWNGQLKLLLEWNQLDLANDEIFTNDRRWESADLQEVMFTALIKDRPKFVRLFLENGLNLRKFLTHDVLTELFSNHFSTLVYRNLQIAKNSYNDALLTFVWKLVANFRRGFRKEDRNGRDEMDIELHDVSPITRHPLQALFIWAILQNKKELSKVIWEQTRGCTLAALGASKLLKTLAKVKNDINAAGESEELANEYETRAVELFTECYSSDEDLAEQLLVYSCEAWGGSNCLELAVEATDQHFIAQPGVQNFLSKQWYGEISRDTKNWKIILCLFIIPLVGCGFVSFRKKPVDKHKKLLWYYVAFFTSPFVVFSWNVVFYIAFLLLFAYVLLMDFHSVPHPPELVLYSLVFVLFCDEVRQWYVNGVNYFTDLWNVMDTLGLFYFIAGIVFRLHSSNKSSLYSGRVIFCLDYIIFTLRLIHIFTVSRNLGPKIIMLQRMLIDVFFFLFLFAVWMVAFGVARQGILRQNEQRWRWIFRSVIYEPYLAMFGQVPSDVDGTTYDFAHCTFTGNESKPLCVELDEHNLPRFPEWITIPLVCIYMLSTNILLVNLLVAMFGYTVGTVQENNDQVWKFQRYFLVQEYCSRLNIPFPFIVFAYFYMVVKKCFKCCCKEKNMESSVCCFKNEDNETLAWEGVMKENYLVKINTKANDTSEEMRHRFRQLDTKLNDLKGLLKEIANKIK
Assay: Secondary in vitro screening on hTRPM8 at 5 μM versus WS-3
Format: cell-based
Settings: WS3 as reference compound
Quantity Kind: activation at 5 µM (%)
Answer with a number only, understood to be in %.

Requested read-out activation at 5 µM, target or system hTRPM8 (Homo sapiens), entry CC(=O)OCC1(COC(C)=O)C[C@H](C)CC[C@H]1C(C)C [Compound 9]
0

Requested read-out activation at 5 µM, target or system hTRPM8 (Homo sapiens), entry C=C(C)[C@@H]1CC[C@@H](C)C[C@H]1C1COC(C)OC1 (some centres unmarked) [Compound 36]
6

Requested read-out activation at 5 µM, target or system hTRPM8 (Homo sapiens), entry CC(C)[C@@H]1CC[C@@H](C)CC12COCOC2 [Compound 6]
3

Requested read-out activation at 5 µM, target or system hTRPM8 (Homo sapiens), entry C=C(C)[C@@H]1CC[C@@H](C)C[C@H]1C(CO)CO [Compound 35]
14

Requested read-out activation at 5 µM, target or system hTRPM8 (Homo sapiens), entry CC(C)[C@@H]1CC[C@@H](C)CC1(CCO)CCO [Compound 29]
26
